Numbers sourced from patent US20230167505A1.

- assay-overview: Pharmacokinetics: onvansertib plasma concentrations by LC/MS-MS
- Assay type: in vivo, human
- measurement-conditions: human, plasma, oral, 12 mg/m^2, Cycle 1 day 5, mean ± SD; 12 mg/m^2 + Decitabine; 4 patients
endpoint-label: Tmax
// unit must come after the numeric part

// recorded Tmax for CN1CCN(c2ccc(OC(F)(F)F)c(Nc3ncc4c(n3)-c3c(c(C(N)=O)nn3CCO)CC4)c2)CC1 [onvansertib] : 2.5 h

###

- assay-overview: Pharmacokinetics: onvansertib plasma concentrations by LC/MS-MS
- Type: in vivo, human
- measurement-conditions: human, plasma, oral, 18 mg/m^2, Cycle 1 day 5, mean ± SD; 18 mg/m^2 + Decitabine; 3 patients; read-out: AUC(0-24)
endpoint-label: AUC(0-t) (µM·h)
Could you give me the number in µM·h? Just the number is fine.

// recorded AUC(0-t) for CN1CCN(c2ccc(OC(F)(F)F)c(Nc3ncc4c(n3)-c3c(c(C(N)=O)nn3CCO)CC4)c2)CC1 : 3.38
